Attribution: patent US5646155A

Method summary: physchem
Condition parameters: octanol/water

[
  {
    "Compound": "O=c1[nH]c(Nc2ccccc2)nc2c1ncn2CCCCO [HB-PG, 9-(4-Hydroxybutyl)-N^2-phenylguanine]",
    "logP": 1.26
  },
  {
    "Compound": "O=c1[nH]c(Nc2ccccc2)nc2c1ncn2CCO [HE-PG, 9-(2-Hydroxyethyl)-N^2-phenylguanine]",
    "logP": 0.833
  },
  {
    "Compound": "O=c1[nH]c(Nc2ccccc2)nc2c1ncn2CC(O)CSCCO (stereo not shown) [CH2 CHCH2SCH2 CH2 OH]",
    "logP": 0.826
  },
  {
    "Compound": "O=c1[nH]c(Nc2ccccc2)nc2c1ncn2[C@H]1C[C@H](O)[C@@H](CO)O1 [drawing 15]",
    "logP": 0.398
  },
  {
    "Compound": "O=c1[nH]c(Nc2ccccc2)nc2c1ncn2CC(O)CO (stereo not shown) [DHP-PG]",
    "logP": 0.398
  },
  {
    "Compound": "C=CCn1cnc2c(=O)[nH]c(Nc3ccccc3)nc21 [CH2 CHCH2]",
    "logP": 1.75
  },
  {
    "Compound": "O=c1[nH]c(Nc2ccccc2)nc2c1ncn2COC(CO)CO [CH2OCH(CH2 OH)2]",
    "logP": 0
  }
]
